Measured PBM binding z-score by item
System: RARb homodimer (NR concentration 270 nM)
Protocol notes: PBM binding z-score (relative to random genomic background probes); higher = stronger binding; sequences stand for … in GC…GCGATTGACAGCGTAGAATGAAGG
Respond with the number and no other words.

Some sequences with recorded PBM binding z-score:
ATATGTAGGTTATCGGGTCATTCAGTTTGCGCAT | 3.05
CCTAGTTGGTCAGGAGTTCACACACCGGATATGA | 3.04
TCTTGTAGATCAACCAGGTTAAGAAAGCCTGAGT | 0.615
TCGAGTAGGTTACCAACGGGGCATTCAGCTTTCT | 0.583
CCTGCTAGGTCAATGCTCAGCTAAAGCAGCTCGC | 2.37
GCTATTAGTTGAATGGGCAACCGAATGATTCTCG | -0.506
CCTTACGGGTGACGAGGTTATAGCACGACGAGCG | 1.05
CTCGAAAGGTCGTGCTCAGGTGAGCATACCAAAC | 2.63

Notebook: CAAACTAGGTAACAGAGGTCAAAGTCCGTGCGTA , PBM binding z-score read as 4.45

Notebook: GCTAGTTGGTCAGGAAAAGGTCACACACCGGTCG , PBM binding z-score read as 5.07

Notebook: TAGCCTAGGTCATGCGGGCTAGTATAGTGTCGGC , PBM binding z-score read as 2.99

Notebook: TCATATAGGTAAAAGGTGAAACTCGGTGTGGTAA , PBM binding z-score read as 2.15
